# target system: M1 muscarinic receptor (Homo sapiens, UniProt P11229)
# Construct: expressed in transfected cells; host or cells: CHO (M1-CHO)
# Sequence (P11229 whole entry): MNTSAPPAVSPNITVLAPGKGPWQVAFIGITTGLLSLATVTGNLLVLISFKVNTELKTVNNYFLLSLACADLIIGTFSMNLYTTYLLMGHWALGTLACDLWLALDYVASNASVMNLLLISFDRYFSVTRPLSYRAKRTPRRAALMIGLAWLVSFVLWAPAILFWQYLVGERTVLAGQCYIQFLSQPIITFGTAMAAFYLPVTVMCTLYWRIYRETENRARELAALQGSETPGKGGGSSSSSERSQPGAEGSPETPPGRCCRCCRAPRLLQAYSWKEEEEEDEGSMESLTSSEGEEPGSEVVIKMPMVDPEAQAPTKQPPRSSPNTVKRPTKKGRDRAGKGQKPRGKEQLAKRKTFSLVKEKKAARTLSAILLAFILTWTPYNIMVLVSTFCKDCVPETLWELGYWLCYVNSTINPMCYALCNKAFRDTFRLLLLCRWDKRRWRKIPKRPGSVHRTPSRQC
# protocol: Functional mobilization of intracellular calcium (FLIPR) in M1-CHO cells
# Assay type: cell-based
# experimental parameters: M1 receptor, calcium mobilization; read-out: M1 Efficacy
# Experimental: Functional Mobilization of Intracellular Calcium to Determine Muscarinic Receptor Activity: […] Compounds are prepared at a 2× fold concentration in a 96-well plate (round bottom, Costar Corning cat# 3656), by reconstituting the pre-spotted compounds in bath 1 containing 1 mM probenecid. […] In both assay modes, the fluorescence is recorded for 60 sec (excitation wavelength is […] and emission wavelength 540 nm) using the FLIPR 3 instrument. […]
In this section, each of the molecules is paired with its reported Emax.

Clc1ccc2c(c1)C1(CCN(C3CCC4CCC3C4)CC1)CN2 (centres unmarked) [compound 348]: > 85%

**Query** What measured Emax goes with CCOC(=O)N1C2CCC1CC(N1CCC3(CC1)CN(C(=O)OC)c1ccc(F)cc13)C2 (centres unmarked) [compound 167] ?
**Result** 65 to 85%

**Query** What measured Emax goes with CN(C)C(=O)N1CC2(CCN(C3CCN(C(=O)OCCF)CC3)CC2)c2cc(F)ccc21 [compound 48] ?
**Result** > 85%

**Query** What measured Emax goes with Clc1ccc2c(c1)C1(CCN(C3CCCCCC3)CC1)CN2 [compound 333] ?
**Result** < 65%

**Query** What measured Emax goes with COC(=O)N1CCC(CN2CCC3(CC2)CN(C(C)=O)c2ccc(F)cc23)CC1 [compound 129] ?
**Result** 65 to 85%

**Query** What measured Emax goes with CC(=O)N1CC2(CCN(CC3=CCCCC3)CC2)c2cc(F)ccc21 [compound 163] ?
**Result** 65 to 85%

**Query** What measured Emax goes with CC(=O)N(C)[C@H]1CC2(CCN(C[C@H]3C[C@H]4CC[C@H]3C4)CC2)c2ccccc21 [compound 190] ?
**Result** > 85%

**Query** What measured Emax goes with CC(=O)N[C@H]1CC2(CCN(C3CCCCCCC3)CC2)c2ccccc21 [compound 261] ?
**Result** < 65%
